Reference source for all entries: ChEMBL document CHEMBL4402547

STUDY TARGET: Potassium voltage-gated channel subfamily KQT member 2 (Homo sapiens)
EXPERIMENT DESCRIPTION: Activation of human Kv7.2 expressed in CHO cells assessed as increase in current amplitude at 10 uM measured at holding potential of -40 mV by whole cell patch clamp electrophysiology assay relative to control
Type: cell-based
Calls of active or inactive are those of the source. The calls are words filed in the database; no cut-off is given here.
Outcome codes: active, inactive

>  <MOLECULE>
CCCCCCC(=O)Nc1ccc2c(ccn2Cc2ccc(C(F)(F)F)cc2)c1

>  <ASSIGNED CATEGORY>
active

$$$$
>  <MOLECULE>
COc1ccc(CN2c3ccc(NS(=O)(=O)C4CCCCC4)cc3CC2C)cc1 (racemic)

>  <ASSIGNED CATEGORY>
inactive

$$$$
>  <MOLECULE>
O=[N+]([O-])c1cc(Br)ccc1CN1CCc2cc(NS(=O)(=O)C3CCCCC3)ccc21

>  <ASSIGNED CATEGORY>
inactive

$$$$
>  <MOLECULE>
O=S(=O)(Nc1ccc2c(ccn2Cc2ccc(F)cc2)c1)C1CCCCC1

>  <ASSIGNED CATEGORY>
inactive

$$$$
>  <MOLECULE>
O=S(=O)(Nc1ccc2c(c1)CCN2Cc1ccc(C(F)(F)F)cc1)C1CCCCC1

>  <ASSIGNED CATEGORY>
inactive

$$$$
>  <MOLECULE>
CCCCS(=O)(=O)Nc1ccc2c(c1)CCN2Cc1ccc(F)cc1

>  <ASSIGNED CATEGORY>
inactive

$$$$
>  <MOLECULE>
CCCCCCC(=O)Nc1ccc2c(ccn2Cc2ccc(O)cc2)c1

>  <ASSIGNED CATEGORY>
inactive

$$$$
>  <MOLECULE>
O=S(=O)(Nc1ccc2c(c1)CCN2Cc1ccc(F)c(F)c1)C1CCCCC1

>  <ASSIGNED CATEGORY>
inactive

$$$$
>  <MOLECULE>
O=S(=O)(Nc1ccc2c(ccn2Cc2ccc(C(F)(F)F)cc2)c1)C1CCCCC1

>  <ASSIGNED CATEGORY>
inactive

$$$$
>  <MOLECULE>
O=S(=O)(Nc1ccc2c(c1)CCN2Cc1ccc(F)cc1)c1ccccc1

>  <ASSIGNED CATEGORY>
inactive

$$$$

====

System: Potassium voltage-gated channel subfamily KQT member 2 (Homo sapiens), O43526 [W236L]
Sequence (O43526 whole entry W236L): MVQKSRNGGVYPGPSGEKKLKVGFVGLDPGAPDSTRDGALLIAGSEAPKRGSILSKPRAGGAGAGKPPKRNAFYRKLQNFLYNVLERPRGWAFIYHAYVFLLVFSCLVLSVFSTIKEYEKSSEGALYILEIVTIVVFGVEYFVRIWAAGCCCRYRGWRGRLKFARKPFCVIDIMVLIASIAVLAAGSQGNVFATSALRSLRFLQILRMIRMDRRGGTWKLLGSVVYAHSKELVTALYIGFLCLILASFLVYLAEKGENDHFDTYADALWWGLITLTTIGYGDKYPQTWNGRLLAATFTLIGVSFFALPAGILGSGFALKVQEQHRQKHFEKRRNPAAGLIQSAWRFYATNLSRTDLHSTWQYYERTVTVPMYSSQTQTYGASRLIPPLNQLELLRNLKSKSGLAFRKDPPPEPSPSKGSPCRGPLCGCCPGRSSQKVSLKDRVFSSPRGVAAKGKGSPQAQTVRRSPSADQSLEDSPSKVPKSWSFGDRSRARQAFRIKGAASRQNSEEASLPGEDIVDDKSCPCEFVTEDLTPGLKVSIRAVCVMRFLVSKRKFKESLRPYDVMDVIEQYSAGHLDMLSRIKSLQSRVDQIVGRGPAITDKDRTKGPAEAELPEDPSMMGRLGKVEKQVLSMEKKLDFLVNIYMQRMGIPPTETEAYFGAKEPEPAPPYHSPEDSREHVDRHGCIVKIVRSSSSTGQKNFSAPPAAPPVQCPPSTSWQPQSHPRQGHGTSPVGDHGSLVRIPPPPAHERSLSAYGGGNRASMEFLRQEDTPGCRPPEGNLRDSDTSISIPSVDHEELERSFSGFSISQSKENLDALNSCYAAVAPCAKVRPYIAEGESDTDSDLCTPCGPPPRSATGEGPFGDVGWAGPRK
EXPERIMENT DESCRIPTION: Activation of human Kv7.2 W236L mutant expressed in CHO cells assessed as channel current amplitude at 10 uM measured at holding potential of -40 mV by whole cell patch clamp electrophysiology assay
Type: cell-based
Activity calls are given as the source filed them. The rule behind the calls is not given here.
Outcomes: label 1 (active), label 0 (inactive)

>  <COMPOUND STRUCTURE>
CCCCCCC(=O)Nc1ccc2c(ccn2Cc2ccc(C(F)(F)F)cc2)c1

>  <ASSIGNED CATEGORY>
label 0

$$$$
>  <COMPOUND STRUCTURE>
O=C(Nc1ccc(Cl)nc1)c1ccc(F)c(F)c1

>  <ASSIGNED CATEGORY>
label 1

$$$$
>  <COMPOUND STRUCTURE>
CC(C)(C)CC(=O)Nc1ccc2c(ccn2Cc2ccc(C(F)(F)F)cc2)c1

>  <ASSIGNED CATEGORY>
label 0

$$$$
>  <COMPOUND STRUCTURE>
CCOC(=O)Nc1ccc(NCc2ccc(F)cc2)cc1N

>  <ASSIGNED CATEGORY>
label 0

$$$$

====

STUDY TARGET: Potassium voltage-gated channel subfamily KQT member 2 (Homo sapiens, UniProt O43526)
Sequence (O43526 whole entry): as the sequence (O43526 whole entry W236L) above, with L236W counted along it
EXPERIMENT DESCRIPTION: Activation of human Kv7.2 expressed in CHO cells assessed as increase in current amplitude at 10 uM measured at holding potential of -40 mV by whole cell patch clamp electrophysiology assay relative to control
Assay type: cell-based
Active and inactive are the calls of the source. No cut-off for these calls is given here.
Outcomes: active, inactive

>  <COMPOUND>
CCCCN(C)CC(=O)Nc1ccc2c(ccn2Cc2ccc(C(F)(F)F)cc2)c1

>  <ASSIGNED CATEGORY>
inactive

$$$$
>  <COMPOUND>
CC(C)[C@H]1CC[C@H](C)C[C@@H]1OC(=O)Nc1ccc2c(c1)CCN2Cc1ccc(F)cc1

>  <ASSIGNED CATEGORY>
inactive

$$$$
>  <COMPOUND>
O=C(Nc1ccc2c(c1)CCN2Cc1ccc(F)cc1)C1CCCCC1

>  <ASSIGNED CATEGORY>
inactive

$$$$
>  <COMPOUND>
CCOC(=O)Nc1ccc(NCc2ccc(F)cc2)nc1N

>  <ASSIGNED CATEGORY>
active

$$$$
>  <COMPOUND>
CCCCCCC(=O)Nc1ccc2c(ccn2Cc2ccc(OCOC)cc2)c1

>  <ASSIGNED CATEGORY>
inactive

$$$$
>  <COMPOUND>
O=C(c1ccc(F)cc1)N1CCc2cc(NS(=O)(=O)C3CCCCC3)ccc21

>  <ASSIGNED CATEGORY>
inactive

$$$$
>  <COMPOUND>
COc1ccc(CN2CCc3cc(NS(=O)(=O)C4CCCCC4)ccc32)cc1

>  <ASSIGNED CATEGORY>
inactive

$$$$
>  <COMPOUND>
O=C(Nc1ccc2c(c1)CCN2Cc1ccc(F)cc1)NC1CCCCC1

>  <ASSIGNED CATEGORY>
inactive

$$$$
>  <COMPOUND>
O=C(Nc1ccc(Cl)nc1)c1ccc(F)c(F)c1

>  <ASSIGNED CATEGORY>
active

$$$$
>  <COMPOUND>
O=S(=O)(CCC1CCCCC1)Nc1ccc2c(ccn2Cc2ccc(F)cc2)c1

>  <ASSIGNED CATEGORY>
inactive

$$$$
>  <COMPOUND>
CC1CC(C)CN(S(=O)(=O)Nc2ccc3c(c2)CCN3Cc2ccc(F)cc2)C1 (stereo unspecified)

>  <ASSIGNED CATEGORY>
inactive

$$$$
>  <COMPOUND>
CCCCCCS(=O)(=O)Nc1ccc2c(c1)CCN2Cc1ccc(F)cc1

>  <ASSIGNED CATEGORY>
inactive

$$$$
>  <COMPOUND>
CCCCNCC(=O)Nc1ccc2c(ccn2Cc2ccc(C(F)(F)F)cc2)c1

>  <ASSIGNED CATEGORY>
inactive

$$$$
>  <COMPOUND>
CC(C)(C)CNC(=O)Nc1ccc2c(c1)CCN2Cc1ccc(F)cc1

>  <ASSIGNED CATEGORY>
inactive

$$$$
>  <COMPOUND>
CC1(C)[C@H]2CC[C@]1(CS(=O)(=O)Nc1ccc3c(c1)CCN3Cc1ccc(F)cc1)C(=O)C2

>  <ASSIGNED CATEGORY>
inactive

$$$$
>  <COMPOUND>
CC(C)(C)CC(=O)Nc1ccc2c(ccn2Cc2ccc(C(F)(F)F)cc2)c1

>  <ASSIGNED CATEGORY>
active

$$$$
>  <COMPOUND>
CCCCCCC(=O)Nc1ccc2c(c1)CCCC2Cc1ccc(C(F)(F)F)cc1 (racemic)

>  <ASSIGNED CATEGORY>
inactive

$$$$
>  <COMPOUND>
CCOC(=O)Nc1ccc2c(c1)CCN2Cc1ccc(F)cc1

>  <ASSIGNED CATEGORY>
inactive

$$$$
>  <COMPOUND>
O=S(=O)(Nc1ccc2c(c1)CCN2Cc1ccc(F)cc1)N1CCCCCC1

>  <ASSIGNED CATEGORY>
inactive

$$$$
>  <COMPOUND>
CCCCCCC(=O)Nc1ccc2c(c1)CCC/C2=C/c1ccc(C(F)(F)F)cc1

>  <ASSIGNED CATEGORY>
inactive

$$$$
>  <COMPOUND>
O=S(=O)(Nc1ccc2c(c1)CCN2CCc1ccc(F)cc1)C1CCCCC1

>  <ASSIGNED CATEGORY>
inactive

$$$$

====

EXPERIMENT DESCRIPTION: Half life in human
Format: ADME

>  <COMPOUND STRUCTURE>
CCOC(=O)Nc1ccc(NCc2ccc(F)cc2)cc1N

>  <half-life>
6 to 8 h

$$$$
